Test: NCI Yeast Anticancer Drug Screen. Data for the sgs1 mgt1 strain (AID 161);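 note: 0% = growth of cultures given vehicle only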
Conditions: S. cerevisiae sgs1 mgt1 strain, at 50.0 µM (retest, dose inferred, filed as 5.0), active compounds read high
Experimental: Growth inhibition of yeast strains with defined genetic alterations is measured as a screen for potential anti-cancer activity. Selected strains with alterations in DNA damage repair or cell cycle control were exposed to compounds and growth inhibition was measured relative to vehicle treated controls. The strain used in this assay is sgs1 mgt1
This is part of a sample that, as a whole, favours compounds with a hit. Of some 79,000 tested, about 15% had one in any assay.
growth inhibition below 70% gives label 0; growth inhibition at or above it gives label 1.

Request: Determine whether measured growth inhibition meets or exceeds 70% for COC(=O)C1C(=O)CC(c2ccccc2)C1c1ccccc1 (centres undefined)
Response: label 0

Request: Let us now turn to CC(C)COC(=O)c1ccc(N=Cc2ccc(C=Nc3ccc(C(=O)OCC(C)C)cc3)cc2)cc1
Response: label 0

Request: Quick one: c1ccc2c(c1)ccc1c2ccc2sc3ccccc3[n+]21
Response: label 1

Request: Same again, this time with O=C(CN1CCCCC1)c1ccc(/C=C/c2ccc(Cl)cc2)cc1
Response: label 1

Request: Also need CCCCCC/C=C\CCCCCCCCCc1c(O)c(OC)cc(O)c1CN(C)C , thanks.
Response: label 1

Request: Also check O=C1C2C3CCC(O3)C2C(=O)N1c1cccc2ccccc12 (centres undefined)
Response: label 0

Request: Try the molecule Oc1ccc(O)c(C2CCCCC2)c1
Response: label 1

Request: Check Clc1nnc(Cl)s1 too.
Response: label 0

Request: And what about the molecule COc1ccc(OC)c(/C=C/NC=O)c1 ?
Response: label 0

Request: Entry to check: COc1ccc(/C(Cl)=C(\c2ccc(OCCN(C)C)cc2)c2ccc(OC(=O)C(C)(C)C)cc2)cc1
Response: label 0

Request: Please answer likewise for O=[N+]([O-])c1cc2[nH]cnc2c([N+](=O)[O-])c1NCc1ccccc1
Response: label 0

Request: Can you handle CCc1ccccc1SC(C)=O next?
Response: label 0

Request: Now the molecule Cc1ccc(S(=O)(=O)Nc2ccccc2SSc2ccccc2NS(=O)(=O)c2ccc(C)cc2)cc1
Response: label 1

Request: How about CCO/C=C1/N=C(c2cc(Cl)cc([N+](=O)[O-])c2)OC1=O ?
Response: label 0

Request: Now the same for CC(=O)N(C)c1ccc2c(c1)Cc1ccccc1-2
Response: label 0

Request: Do the same for Cc1ccc([Si](O)(c2ccc(C)cc2)c2ccc(C)cc2)cc1 please
Response: label 0

Request: Another molecule to check: CN1C(=O)CCC2[C@@H]3CC=C4C[C@@H](O)CC[C@]4(C)C3CC[C@@]21C (some centres undefined)
Response: label 0

Request: Try this molecule too: CSc1nc(NC2OC(CO)C(O)C(O)C2O)c(Cl)c(=O)[nH]1 (centres undefined)
Response: label 0

Request: Repeat for the following molecule: CCCCCCCCCCC(O)CN1CCN(c2cccc(Cl)c2)CC1 (centres undefined)
Response: label 1

Request: Repeat for the following molecule: O=C1O/C(=C(\Cc2ccccc2)c2ccccc2)N(c2ccccc2)C1=O
Response: label 0

Request: Try this molecule too: COc1ccc(-c2nnc(C)nc2-c2ccc(OC)cc2)cc1
Response: label 0

Request: // query: CCC[CH2][Sn]([CH2]CCC)([O]C(=O)C(OC)c1ccccc1)[O]C(=O)C(OC)c1ccccc1 (centres undefined)
Response: label 1

Request: Then what about the molecule Cc1ccc(C(=O)C(CCC#N)(CCC#N)CCC#N)cc1 ?
Response: label 0

Request: Input O=C(CC(=O)C(F)(F)F)c1ccc(-c2ccccc2)cc1
Response: label 1

Request: Could you do the same for C/C(=N\NC(=S)NC12CC3CC(CC(C3)C1)C2)c1ccccn1 , please?
Response: label 1

Request: Let us now turn to O=C1C=C(Cl)C(=O)C(Cl)=C1Cl
Response: label 1

Request: Cc1ccc(C)c(C(=O)CCN)c1 ?
Response: label 0

Request: Same read-out for CCCCCC(C)[P+](c1ccccc1)(c1ccccc1)c1ccccc1 (centres undefined) ?
Response: label 1

Source of measurements: PubChem BioAssay (NCI)
